For each of the molecules below, state its GI50.
tested on: U-251; assay: NCI tumour cell line growth inhibition, 48 h
Active and inactive are the calls of the source. Rule as the data show it: active = GI50 up to about 1.1 µM and inactive = higher.

CC(=O)OCc1cncn1S(=O)(=O)c1ccc(C)cc1 :: > 87.7 µM (inactive)

Batch request: GI50 per item, same order as input.
1. Cc1ccc(/N=N/C(=N\c2ccc(F)cc2)c2ccc(N(CCC#N)CCC#N)cc2)cc1
2. CC(C)N(C(=O)c1ccc(NCc2cc(O)ccc2O)cc1)C(C)C
3. COC1(OC)CCCCCCCCC(OC)(OC)CCCCCCCC1
4. O=C(O)C1CCCCC1C(=O)Nc1nc2ccccc2[nH]1 (configuration not stated)
5. Cc1ccc(S(=O)(=O)n2cc(C=O)c(-c3cn(S(=O)(=O)c4ccc(C)cc4)cc3-c3cn(S(=O)(=O)c4ccc(C)cc4)cc3C=O)c2)cc1
6. COc1cccc(/C=C2\S/C(=N/Nc3nc(-c4ccc([N+](=O)[O-])cc4)cs3)NC2=O)c1O

36.2 µM (inactive)
15.8 µM (inactive)
> 100 µM (inactive)
> 100 µM (inactive)
29.6 µM (inactive)
1.8 µM (inactive)

###

tested on: ACHN; assay: NCI tumour cell line growth inhibition, 48 h
Calls of active or inactive are those of the source. Cut-off read from the data, not from the text of the source: active = GI50 up to about 1.1 µM and inactive = higher.
Use one of these outcomes when replying: active, inactive

COC1CC(N)C(O)C(C)O1 (stereo not given) :: inactive
O=C(O)c1cc(-c2ccc3c(O)ccc(O)c3c2)ccc1O :: inactive
CCCCCCCCCCCCCCCC(=O)OCCOCCOCCOCc1ccccc1 :: inactive
c1ccc([P+](c2ccccc2)(c2ccccc2)c2ccc([P+](c3ccccc3)(c3ccccc3)c3ccccc3)c3ccccc23)cc1 :: inactive
CC(C)(C)c1cc(-c2c3nc(c(-c4cc(C(C)(C)C)cc(C(C)(C)C)c4)c4ccc([nH]4)c(-c4cc(C(C)(C)C)cc(C(C)(C)C)c4)c4nc(c(-c5cc(C(C)(C)C)cc(C(C)(C)C)c5)c5ccc2[nH]5)C=C4)C=C3)cc(C(C)(C)C)c1 :: inactive

Turning to the following molecule.
Dear colleague, could you share the recorded outcome for N=C(N)SCc1ccc(N=C=S)cc1 when you have a moment? inactive

###

system: TK-10; assay: NCI tumour cell line growth inhibition, 48 h
Activity calls are given as the source filed them. Cut-off read from the data, not from the text of the source: active = GI50 up to about 1.1 µM and inactive = higher.
For each of the compounds below, state its GI50.

Illustrative cases are given below, each with its answer.
COC(=O)C1=C(c2ccc3c(c2)OCO3)O[C@H](c2cc(OC)c(OC)c(OC)c2)[C@H]1COC(C)=O :: 13.5 µM (inactive)
CC1=C(C(=O)Nc2ccccc2C)C(c2ccc(C3C(C(=O)Nc4ccccc4C)=CNC=C3C(=O)Nc3ccccc3C)cc2)C(C(=O)Nc2ccccc2C)=C(C)N1 :: 49.7 µM (inactive)
COC1(OC)CCCCCCCCC(OC)(OC)CCCCCCCC1 :: > 100 µM (inactive)

Batch request: GI50 per item, same order as input.
1. Cc1ccc(/N=C2\SC(=NN(C)C)S\C2=N/c2ccc(C)cc2)cc1
2. O=C1CCC(=O)C1=NNc1ccccc1
3. O=C1C2C(C(=O)N1c1ccccc1)C1(c3ccccc3)CCC2(C(=O)c2ccccc2)O1 (stereo not given)
4. O=C(CCc1ccccc1)n1cccc1CO
5. Cn1cccc(C(=O)c2ccccc2)c1=O
6. O=[N+]([O-])/C(C(Cl)=C(Cl)Cl)=C(/Br)SCc1ccccc1
7. Cc1nnc(N)nc1/C=C\c1ccc(Cl)cc1Cl

> 100 µM (inactive)
> 100 µM (inactive)
> 10 µM (inactive)
> 100 µM (inactive)
> 100 µM (inactive)
3.08 µM (inactive)
> 100 µM (inactive)

###

system: SK-MEL-28; test: NCI tumour cell line growth inhibition, 48 h
Activity calls are given as the source filed them. No stated cut-off is given here; in the data, active = GI50 up to about 1.1 µM and inactive = higher.
For each of the molecules below, state its GI50.

Illustrative cases are given below, each with its answer.
OCC1CCCC1O (stereo unspecified) :: > 100 µM (inactive)
COc1cccc(/C=C2\CCC(CN(C)C)C2=O)c1 (stereo unspecified) :: 3.03 µM (inactive)
CN(C)CCNC(=O)c1cccc2ncc(-c3ccccc3)nc12 :: 18.2 µM (inactive)
Cc1cc(N(CCOS(C)(=O)=O)CCOS(C)(=O)=O)ccc1/C=N/c1ccc(-c2csc(-c3ccc(Br)cc3)n2)cc1 :: 31.2 µM (inactive)
O=[N+]([O-])C(=C(Nc1ccccc1)Nc1ccccc1)C(Cl)=C(Cl)Cl :: 18.7 µM (inactive)

Batch request: GI50 per item, same order as input.
1. COC(=O)c1ccc(O)c2nc3c(C=O)c(O)cc(O)c3nc12
2. O=[N+]([O-])c1ccc(-c2csc3nc(-c4ccccc4)nn23)cc1
3. CCOC1(COP(=O)(OCc2ccccc2)OCc2ccccc2)COC(COP(=O)(OCc2ccccc2)OCc2ccccc2)(OCC)CO1 (stereo unspecified)
4. Cc1cc(NC(=S)Nc2ccccc2)c(NC(=S)Nc2ccccc2)cc1C

1: 1.93 µM (inactive); 2: > 100 µM (inactive); 3: > 100 µM (inactive); 4: 38.8 µM (inactive)

Batch request: GI50 per item, same order as input.
1. O=[N+]([O-])/C(C(Cl)=C(Cl)Cl)=C(/Br)SCc1ccccc1
2. Cc1ccccc1NC(=O)C1C(=O)N(c2ccccc2C)C(=O)/C1=N\N (stereo unspecified)

1: 1.89 µM (inactive); 2: > 100 µM (inactive)

###

test system: SK-OV-3; test: NCI tumour cell line growth inhibition, 48 h
The source made the active and inactive calls. Cut-off read from the data, not from the text of the source: active = GI50 up to about 1.1 µM and inactive = higher.
For each of the compounds below, state its GI50.

O=[N+]([O-])c1ccc(NN=C2CN3CCN(C2)c2ccccc23)c([N+](=O)[O-])c1 :: > 100 µM (inactive)
CCC/C=C\C=C\C1(NS(=O)(=O)c2ccc(C)cc2)CCC(C(C)(C)C)CC1 (stereo not given) :: 26.7 µM (inactive)

Batch request: GI50 per item, same order as input.
1. CC(C)N(C(=O)c1ccc(NCc2cc(O)ccc2O)cc1)C(C)C
2. CCc1cccc(C)c1NC(=O)NS(=O)(=O)c1ccc(C)cc1

1. 35.3 µM (inactive)
2. > 100 µM (inactive)

With SK-OV-3 as the test system, provide measured GI50 for this compound: COc1ccc2c(c1)-c1c(c3ccccc3n1CCN1CCOCC1)CC2 53.1 µM (inactive)

###

test system: Malme-3M; assay: NCI tumour cell line growth inhibition, 48 h
Activity calls are given as the source filed them. Rule as the data show it: active = GI50 up to about 1.1 µM and inactive = higher.
MEASURED_ATTRIBUTE: GI50

CC(C)(C)c1cc(/C=C(\C#N)C2=NCCO2)cc(C(C)(C)C)c1O :: 7.26 µM (inactive)

Batch request: GI50 per item, same order as input.
1. CC(=O)OCc1cncn1S(=O)(=O)c1ccc(C)cc1
2. COC1OC(COC(=O)NCCCCC(=O)C(F)(F)F)C(O)C(O)C1O (stereo not given)
3. Cc1cc(C)c2c(=O)n(CN3CCC(O)(c4ccccc4)CC3)sc2n1
4. CCOC(=O)C1=C(C)N(c2ccccc2)C2=C(C(=O)N(c3ccccc3)C2c2ccccc2)C1c1ccccc1 (stereo not given)
5. O=C1C(c2c(O)[nH]c3ccc(Cl)cc23)=Nc2ccccc21
6. N#CCN1CCN(CC#N)CCN(CC#N)CCN(CC#N)CC1
7. C=C(C)[C@H](O)C(O)CC(C)[C@@H]1CCC23CC12CCC1[C@@]2(C)CCC(OC(C)=O)C(C)(C)C2CC(OC2OC(COC(C)=O)C(O)C(O)C2O)[C@]13C (stereo not given in full)
8. COc1ccc2c(c1)-c1c(c3ccccc3n1CCN1CCOCC1)CC2

1. > 100 µM (inactive)
2. > 100 µM (inactive)
3. 17.6 µM (inactive)
4. > 100 µM (inactive)
5. 5.68 µM (inactive)
6. > 100 µM (inactive)
7. 7.91 µM (inactive)
8. 14.6 µM (inactive)

###

system: KM12; test: NCI tumour cell line growth inhibition, 48 h
The source made the active and inactive calls. Rule as the data show it: active = GI50 up to about 1.1 µM and inactive = higher.
MEASURED_ATTRIBUTE: GI50

Illustrative cases are given below, each with its answer.
N=C(NC(=S)N1CCCCC1)N1CCCCC1 :: > 100 µM (inactive)
COC(=O)C1C(=O)CC2CCCCC21 (configuration not stated) :: > 100 µM (inactive)

Batch request: GI50 per item, same order as input.
1. O=S(=O)(O)c1cccc2cccc(/N=N/c3c(O)ccc4ccccc34)c12
2. CC1=C2C(O)C(C(C)C(=O)N(C)C)CCC2(C)C=CC1=O (configuration not stated)
3. O=[N+]([O-])C(=C(N1CCCCC1)N1CCCCC1)/C(Cl)=C(\Cl)[N+](=O)[O-]

1: > 100 µM (inactive); 2: > 100 µM (inactive); 3: 19.4 µM (inactive)

###

test system: SW-620; assay: NCI tumour cell line growth inhibition, 48 h
Calls of active or inactive are those of the source. No stated cut-off is given here; in the data, active = GI50 up to about 1.1 µM and inactive = higher.
For each of the molecules below, state its GI50.

Cc1cnc2nc(-c3cccc4ccccc34)cc(O)c2c1 :: 0.000449 µM (active)

Batch request: GI50 per item, same order as input.
1. Cc1ccc(S(=O)(=O)n2cc(C=O)c(-c3cn(S(=O)(=O)c4ccc(C)cc4)cc3-c3cn(S(=O)(=O)c4ccc(C)cc4)cc3C=O)c2)cc1
2. O=P1(Oc2ccccc2)N(CCCl)CCN1c1ccccc1 (stereo unspecified)
3. CC1=C(C(=O)Nc2ccccc2C)C(c2ccc(C3C(C(=O)Nc4ccccc4C)=CNC=C3C(=O)Nc3ccccc3C)cc2)C(C(=O)Nc2ccccc2C)=C(C)N1
4. CC1(C=O)C(=O)CCC2(C)C3CC(=O)OC3CCC12 (stereo unspecified)
5. CC1(C)CC(N(C(=O)/C=C/c2ccc([N+](=O)[O-])o2)C2CCCCC2)CC(C)(C)N1
6. CCOP1(=O)C=C(C)C(Cl)=C(C)C1 (stereo unspecified)
7. CCCCSN1C(=O)c2ccccc2C1=S

45.1 µM (inactive)
> 100 µM (inactive)
14.6 µM (inactive)
> 100 µM (inactive)
2.55 µM (inactive)
21.1 µM (inactive)
32.9 µM (inactive)

Batch request: GI50 per item, same order as input.
1. CC(=O)OC1CCC2(C)C(CCC3C2CC(=O)C2(C)C3CC(N3CC3)C2C(C)=O)C1 (stereo unspecified)
2. CCCCOc1c(C(=O)O)cc(Br)cc1C(=O)O
3. O=C1Cc2ccccc2CCc2ccsc21

21.1 µM (inactive)
> 100 µM (inactive)
> 100 µM (inactive)

Batch request: GI50 per item, same order as input.
1. O=C1c2cccc3c(Cl)ccc(c23)C(=O)N1CCCN1CCN(CCCN2C(=O)c3cccc4c(Cl)ccc(c34)C2=O)CC1
2. C/C(=N/NC(=S)NCCc1ccccn1)c1cnccn1
3. O=C(O)C1CCCCC1C(=O)Nc1nc2ccccc2[nH]1 (stereo unspecified)
4. N=C(N)SCc1ccc(N=C=S)cc1
5. COC1OC(COC(=O)NCCCCC(=O)C(F)(F)F)C(O)C(O)C1O (stereo unspecified)

1: > 100 µM (inactive); 2: 11.9 µM (inactive); 3: > 100 µM (inactive); 4: 12.9 µM (inactive); 5: > 100 µM (inactive)
